Measured values drawn from patent US7521199B2 for this set.

The following molecules are shown together with reported Efficacy (%), Hepatic Lipase Inhibition values.
Tested on: human hepatic lipase (HL) promoter (−1557 to +43) regulated through human estrogen receptor
experimental-details: Hepatic lipase promoter luciferase reporter assay in HepG2 cells cotransfected with human estrogen receptor and C/EBPα
Assay type: cell-based
condition-parameters: relative to 100% effect of 17β-estradiol inhibition of HL activity; transfected HepG2 cells, 16-24 hours treatment

molecule | Efficacy (%), Hepatic Lipase Inhibition
C[C@]12CCC3=C(CCc4cc(O)ccc43)[C@@H]1CC[C@@H]2O [17β-Δ8,9-dehydroestradiol] | 88
C[C@]12CCC3=C(CCc4cc(O)ccc43)[C@@H]1CCC2=O [Δ8,9-dehydroestrone] | 93
C[C@]12CCc3c(ccc4cc(O)ccc34)[C@@H]1CCC2=O | 82
C[C@]12CC[C@H]3C(=CCc4cc(O)ccc43)[C@@H]1CC[C@H]2O [17α-dihydroequilin] | 89
C[C@]12CC[C@@H]3c4ccc(O)cc4CC[C@H]3[C@@H]1CC[C@@H]2O | 100
C[C@]12CC[C@@H]3c4ccc(O)cc4CC[C@H]3[C@@H]1CC[C@H]2O | 69
C[C@]12CC[C@H]3C(=CCc4cc(O)ccc43)[C@@H]1CC[C@@H]2O [17β-dihydroequilin] | 149
